Tested on: U-251
Method Description: NCI tumour cell line growth inhibition, 48 h
Active and inactive are the calls of the source. Cut-off read from the data, not from the text of the source: active = GI50 up to about 1.1 µM and inactive = higher.
Measured GI50 by item

Consider the worked cases shown below.
Compound: COc1cccc(/C=C\c2ccnc3ccccc23)c1
Target: U-251
GI50: > 10 µM (inactive)
//
Compound: CN(C)c1ccc(/C=C/C=C\c2cc(/C=C/C=C/c3ccc(N(C)C)cc3)[s+]c3ccccc23)cc1.[O-][Cl+3]([O-])([O-])[O-]
Target: U-251
GI50: 10 µM (inactive)
//
Compound: Brc1ccc(N2C[N+](c3ccc(Br)cc3)=NC(c3ccccc3)=N2)cc1
Target: U-251
GI50: 19.1 µM (inactive)
//
Compound: CCOC(=O)C12OC(OCC)(CC1(OCC)OCC)C1(CC1)C2=O (stereo unspecified)
Target: U-251
GI50: > 100 µM (inactive)
//
Compound: S=C(Nc1ccc(Cl)cc1)SC1CCCCC1
Target: U-251
GI50: 32.4 µM (inactive)

Please turn your attention to the following entry.
Prompt: Provide one value: measured GI50 of `COc1ccc(/N=N/c2ccc3oc(=O)c(C(=O)Nc4ccccc4C)cc3c2)cc1`
Completion: > 10 µM (inactive)
